GI50 values by entry
Tested on: OVCAR-3 ovarian
testProtocol: NCI tumour cell line growth inhibition, 48 h
endpointLabel: GI50

compound	readoutValue
Cc1ccc(NC(=O)c2cc(S(=O)(=O)N3C(=O)NC(=O)NS3(=O)=O)c(S)cc2Cl)cc1	16.5 µM
C=C1C(=O)O[C@H]2[C@H]1CC/C(COC(=O)NCC(C)c1ccc(CC(C)C)cc1)=C\CC[C@@]1(C)O[C@@H]21 (some centres not stated)	0.625 µM
O=C(O)[C@@H](Cc1ccc2ccccc2c1)NC(=O)n1c2ccccc2c2ccccc21	1.81 µM
COC(=O)C1(C)Cc2cc(OC(C)=O)c(OC(C)=O)cc2N1 (configuration not stated)	6.97 µM
COc1ccc(CN2C3CC2CN(c2ccc(-c4cc(OCC(C)(C)O)cn5ncc(C#N)c45)cn2)C3)cn1	> 100 µM
CC(C)(C)OC(=O)NCCCCCCCn1c2c(c3ccccc3c1=O)C(=O)c1ccccc1-2	34.3 µM
CCCCCCCCCCCCCCCC[N+]1(C)CCOCC1	1.56 µM

Source: PubChem BioAssay (NCI)
